biological target: mouse RORγ (Mus musculus); construct: from Ile251 to Lys516 for mouse RORγ; expressed in transfected cells; host or cells: CHO cells (transient co-transfection with pG5-Luc); assay: In-vitro reporter gene assay for inhibitory activity against RORγ transcription, Test Method A (GAL4-mRORγ LBD / pG5-Luc in CHO cells); format: cell-based; settings: luciferase reporter, 2 days
Sequence (P51450 251-516): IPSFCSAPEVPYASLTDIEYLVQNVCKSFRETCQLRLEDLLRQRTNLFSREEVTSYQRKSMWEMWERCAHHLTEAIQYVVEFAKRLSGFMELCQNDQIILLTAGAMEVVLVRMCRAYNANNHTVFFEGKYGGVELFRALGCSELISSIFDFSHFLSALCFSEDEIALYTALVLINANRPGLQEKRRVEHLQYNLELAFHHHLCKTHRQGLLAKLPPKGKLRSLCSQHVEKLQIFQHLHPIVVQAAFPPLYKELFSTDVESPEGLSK
metric: EC50 (µM)

Would you please look over these solved cases?
compound: CC(C)(C)CCc1ccc(C23CCC(C)(C)C2=CN(CCC(=O)O)C(=O)N3)cc1Cl (single isomer, unassigned) [Example 4]
experimentalSystem: mouse RORγ (Mus musculus)
resultUnits: µM
observedMeasurement: 1.01

compound: O=C(O)CCN1C=C2CCCCC2(c2ccc(OCC3(C(F)(F)F)CC3)c(Cl)c2)NC1=O (racemic)
experimentalSystem: mouse RORγ (Mus musculus)
resultUnits: µM
observedMeasurement: 0.16

compound: COC1CC[C@@]2(c3ccc(CCC(C)(C)C)c(Cl)c3)NC(=O)N(CCC(=O)O)C=C2C1 (single isomer, unassigned)
experimentalSystem: mouse RORγ (Mus musculus)
resultUnits: µM
observedMeasurement: 0.016

compound: CC(C)(C)CCc1ccc(C23CCC(C(F)(F)F)CC2=CN(C24CC(C(=O)O)(C2)C4)C(=O)N3)cc1Cl (single isomer, unassigned)
experimentalSystem: mouse RORγ (Mus musculus)
resultUnits: µM
observedMeasurement: 0.038

compound: CC(C)(C)CCc1ccc(C23CCC(CC#N)C2=CN(CCC(=O)O)C(=O)N3)cc1Cl (racemic)
experimentalSystem: mouse RORγ (Mus musculus)
resultUnits: µM
observedMeasurement: 0.048

(a) CC(C)(C)COc1ccc(C23CCCCC2=CN(CCC(=O)O)C(=O)N3)cc1Cl (racemic)
(b) CCOC(=O)CCN1C=C2C(CCN(C)C)CCCC2(c2ccc(CCC(C)(C)C)c(Cl)c2)NC1=O (racemic)
In the pair a and b , the larger recorded EC50 belongs to which? In your reply, give the label of the chosen option.
b
(b: 7.48 µM, a: 0.072 µM)

(P) CC1CCCC2(c3ccc(CCC(C)(C)C)c(Cl)c3)NC(=O)N(C34CC(C(=O)O)(C3)C4)C=C12 (racemic)
(Q) COCC1OC[C@]2(c3ccc(CCC(C)(C)C)c(Cl)c3)NC(=O)N(CCC(=O)O)C=C12 (single isomer, unassigned)
(R) CC(C)(C)CCc1ccc(C23CCCC(CCOS(C)(=O)=O)C2=CN(CCC(=O)O)C(=O)N3)cc1Cl (racemic)
(S) CC(C)(C)COc1ccc(C23CCCCC2=NNC(=O)N3)cc1Cl (racemic)
(T) C[C@@H]1CCC2(c3ccc(CCC(C)(C)C)c(Cl)c3)NC(=O)N(CCC(=O)O)C=C12 (single isomer, unassigned) [Example 12]
I would appreciate it if you could sort these 5 compounds by EC50, starting from the smallest number. # answer = labels listed in requested order
P, S, R, T, Q

(1) CC(C)(C)CCc1ccc([C@]23CCC(C)(C)C2=CN(c2ccc(C(=O)O)cc2)C(=O)N3)cc1Cl (single isomer, unassigned)
(2) CC1CCC2(c3ccc(CCC(C)(C)C)c(Cl)c3)NC(=O)N(CCC(=O)O)C=C2C1 (single isomer, unassigned) [Example 69]
In the pair 1 and 2 , the larger recorded EC50 belongs to which? In your reply, give the label of the chosen option.
1
(1: 1.47 µM, 2: 0.027 µM)

(P) CC(C)(C)CCc1ccc(C23CCCC(CC(N)=O)C2=CN(CCC(=O)O)C(=O)N3)cc1Cl (racemic)
(Q) C[C@@H]1CCC2(c3ccc(CCC(C)(C)C)c(Cl)c3)NC(=O)N(CCC(=O)O)C=C12 (single isomer, unassigned) [Example 11]
Returns the identifier with the smallest measured EC50 among P and Q . In your reply, give the label of the chosen option.
Q

(I) CC(C)(C)CCc1ccc([C@]23CCCCC2=CN(C24CC(C(=O)O)(C2)C4)C(=O)N3)cc1Cl
(II) CC(C)(C)CCc1ccc(C23CCC(C)(C)CC2=CN(CCC(=O)O)C(=O)N3)cc1Cl (racemic)
(III) CC(C)(C)CCc1ccc([C@]23CCCCC2=CN(CCC(=O)O)C(=O)N3)cc1Cl (single isomer, unassigned)
(IV) CC(C)(C)CCc1ccc(C23COC(COC(C)(C)C)C2=CN(CCC(=O)O)C(=O)N3)cc1Cl (single isomer, unassigned) [Example 21]
(V) CC(C)(C)CCc1ccc(C23CCCC(CCO)C2=CN(CCC(=O)O)C(=O)N3)cc1Cl (racemic)
# sort list by recorded EC50, greatest to least # answer = labels listed in requested order
III, I, IV, V, II
